# Tested on: NCI-H23 lung
# Experimental Details: NCI tumour cell line growth inhibition, 48 h
Below, each entry is listed alongside its reported TGI.

Worked examples, 5 compounds total:
Compound	Quantity Name	Data Value
CCOC(=O)/C(=C\c1ccc(O)c(OC)c1)C(=O)c1ccccc1	TGI	23.7 µM
O=C(Nc1ccccc1O)c1cccc(NC2=C(Cl)C(=O)N(Cc3ccccc3)C2=O)c1	TGI	9.38 µM
CCCCON1C[C@@H](O)C(O)[C@@H](O)C1 (stereo partly specified)	TGI	> 100 µM
COc1cc(/C=C2\[C@H]3c4c(c(OC)c(C)c(OC)c4OC)C[C@@H](C(=O)N2Cc2ccccc2)N3C(=O)OCC(C)C)c(OC)c(C)c1OC	TGI	> 100 µM
CC1=NN(c2nc(N)nc(CCl)n2)CC1	TGI	41.2 µM

Form entry - test system: NCI-H23 lung; read-out: TGI; compound: CN(NC(=O)c1ccco1)C1=NCCN1
> 100 µM

Form entry - test system: NCI-H23 lung; read-out: TGI; compound: O=C(Nc1cc(C(=O)Nc2cccc(S(=O)(=O)O)c2)cc(C(=O)Nc2cccc(S(=O)(=O)O)c2)c1)c1cccc(C(=O)Nc2cc(C(=O)Nc3cccc(S(=O)(=O)O)c3)cc(C(=O)Nc3cccc(S(=O)(=O)O)c3)c2)c1
> 100 µM
